This collection of values is drawn from the supplement of paper PMC8728848.

This listing pairs binders with measured glycan array binding signal (z-score).
target_desc: Gal(b1-3)GalNAc(b1-3)Gal(a1-4)Gal(b1-4)Glc
measurement_notes: glycan array binding signal (z-score within array); higher = stronger binding
condition_info: glycan notation: IUPAC condensed, linker removed
Only a selection was taken, and the strongest signals are over-represented in it overall.

| binder | glycan array binding signal (z-score) |
| --- | --- |
| RobpsCRA (Robinia pseudoacacia) (protein) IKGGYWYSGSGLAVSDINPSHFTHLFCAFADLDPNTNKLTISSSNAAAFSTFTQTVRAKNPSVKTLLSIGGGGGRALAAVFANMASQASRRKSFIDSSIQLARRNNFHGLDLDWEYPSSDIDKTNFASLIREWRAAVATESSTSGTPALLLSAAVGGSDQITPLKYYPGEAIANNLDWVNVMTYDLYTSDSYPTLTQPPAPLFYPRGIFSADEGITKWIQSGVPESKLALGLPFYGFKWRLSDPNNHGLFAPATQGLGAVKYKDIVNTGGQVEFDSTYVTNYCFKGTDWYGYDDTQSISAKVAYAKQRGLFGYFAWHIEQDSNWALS | 0.121 |
| ArathEULS3 TAP (Arabidopsis thaliana) (protein) IDENLYFQGGSMDEKTTGWRGGHVVEGLAGELEQLRARLEHHPQGQREPGGGGSLEITSLYKKAGFMEHHHQHHRHHQRDDGEDDRQSFGVPPPHVDAPPQPHGLYQSQPHFDPYAPTPQAPAPYRSETQFEPHAPPPYRSEPYFETPAPPPSFGHVSHVGHQSPNESYPPEHHRYGGYQQPSNSLLESHGDHSGVTHVAHHSSNQPQSSSGVYHKPDENRLPDNLAGLAGRATVKVYSKAEPNYNLTIRDGKVILAPADPSDEAQHWYKDEKYSTKVKDADGHPCFALVNKATGEAMKHSVGATHPVHLIRYVPDKLDESVLWTESKDFGDGYRTIRMVNNTRLNVDAYHGDSKSGGVRDGTTIVLWDWNKGDNQLWKIFPF | 0.136 |
